Attribution: ChEMBL document CHEMBL4334464

- protocol: Stability in human liver microsomes assessed as compound remaining incubated for 15 mins in absence of NADPH by LC/MS/MS analysis
- Type: ADME, Microsome
- recordedConditions: read-out: Stability
Recorded measurements of remaining at 0.25 h, one per entry
Numeric answer only, unit % assumed.

C/C(=N\NC(=N)N)c1cnn(-c2ccc(C#CC3CCCC3)cc2)c1C
99

Now consider the entry below.
QUERY: Supply recorded remaining at 0.25 h for C/C(=N\NC1=NCCN1)c1cnn(-c2ccc(C#CC3CCCC3)cc2)c1C here.
RESULT: 98

###

- Tested on: Pseudomonas aeruginosa
- protocol: Antibacterial activity against Pseudomonas aeruginosa ATCC 15442 clinical isolates after 18 to 20 hrs in aerobic condition by CLSI-based broth microdilution assay
- Type: functional
Recorded measurements of MIC, one per entry
Numeric answer only, unit µg/mL assumed.

Worked cases, MIC given:
C/C(=N\NC(=N)N)c1cnn(-c2ccc(C#CC3(O)CCCCC3)cc2)c1C
64
C/C(=N\NC1=NCCN1)c1cnn(-c2ccc(C#CC3CCCC3)cc2)c1C
64
CCCC#Cc1ccc(-n2ncc(/C(C)=N/NC(=N)N)c2C)cc1
16
C/C(=N\NC(=N)N)c1cnn(-c2ccc(C#Cc3ccccc3)cc2)c1C
32

QUERY: Supply recorded MIC for C/C(=N\NC(=N)N)c1cnn(-c2ccc(C#CC3CCCCC3)cc2)c1C here.
RESULT: 32

QUERY: Supply recorded MIC for C/C(=N\NC(=N)N)c1cnn(-c2ccc(C#CC3CCCC3)cc2)c1C here.
RESULT: 32

QUERY: Supply recorded MIC for CCCCCC#Cc1ccc(-n2ncc(/C(C)=N/NC(=N)N)c2C)cc1 here.
RESULT: 32
